Quick reference: MIC of the listed items.
Tested on: C. difficile strain 630 (CD630, ATCC BAA-1382-FZ, ribotype 012)
measurementDescription: MIC by broth microdilution
Type: cell-based, Clostridium difficile
assayContext: Clostridioides difficile, ATCCBAA1382; BHIS broth, anaerobic, 20–24 h, n = 2
Answer format: numeric, µg/mL implied, no suffix.

Record excerpt, results attached:
{"compound": "O=C(Nc1ccc(I)cc1)c1cc(I)cc(I)c1O [Compound 7d]", "MIC, µg/mL": 0.13}
{"compound": "O=C(NCCc1ccccc1Cl)c1cc(I)cc(I)c1O [Compound 7f]", "MIC, µg/mL": 2}

Entry O=C(Nc1ccc(Oc2ccc(Cl)cc2)cc1)c1cc(Cl)cc(Cl)c1O [Compound 8] , tested on C. difficile strain 630 (CD630, ATCC BAA-1382-FZ, ribotype 012), has a reported MIC of 0.03

Entry O=C(Nc1ccccc1Cl)c1cc(I)cc(I)c1O [Compound 7c] , tested on C. difficile strain 630 (CD630, ATCC BAA-1382-FZ, ribotype 012), has a reported MIC of 8
